Below, each entry is listed alongside its reported AC50.
tested on: HTT mRNA; assay: Splicing RT-qPCR assay, HTT canonical (CJ) and alternative (AJ) junction mRNA; type: cell-based, human; conditions: Homo sapiens, A673 or K562 cells, 24 hours compound treatment, read-out: HTT AJ (AC50, increase in alternative junction mRNA)

[
  {
    "compound": "Cc1cn2cc(NC(=O)c3ccc(N4CCNCC4)c4cn(Cc5cn[nH]c5)nc34)cc(F)c2n1 [Compound 341]",
    "AC50": "> 10 µM"
  },
  {
    "compound": "COc1nc(NC(=O)c2ccc(N3CCNCC3)c3cn(C)nc23)cn2cc(C)nc12 [Compound 323]",
    "AC50": "0.1 to 1 µM"
  },
  {
    "compound": "Cc1cn2cc(NC(=O)c3ccc(N4CCNCC4)c4cn(CC56CC(O)(C5)C6)nc34)cc(F)c2n1 [Compound 414]",
    "AC50": "> 10 µM"
  },
  {
    "compound": "Cc1cn2cc(NC(=O)c3ccc(N4CCNCC4)c4cc(C)oc34)cc(C)c2n1 [Compound 267]",
    "AC50": "1 to 10 µM"
  },
  {
    "compound": "Cc1cn2cc(NC(=O)c3ccc(N4CC[C@@H](NC5(CF)CC5)C4)c4cn(C)nc34)cc(F)c2n1 [Compound 461]",
    "AC50": "> 10 µM"
  },
  {
    "compound": "Cc1cn2cc(NC(=O)c3ccc(N4CCNCC4)c4cn(C5CC(O)C5)nc34)cc(F)c2n1 (stereo not drawn) [Compound 355]",
    "AC50": "1 to 10 µM"
  },
  {
    "compound": "CN1CCN(c2ccc(C(=O)Nc3cc(F)c4nc(CO)oc4c3)c3nn(C)cc23)CC1 [Compound 494]",
    "AC50": "> 10 µM"
  },
  {
    "compound": "CCNC1CCN(c2ccc(C(=O)Nc3cc(F)c4nc(C)cn4c3)c3nn(CC)cc23)C1 (stereo not drawn) [Compound 396]",
    "AC50": "> 10 µM"
  },
  {
    "compound": "CCn1cc2c(N3CC[C@@H](NC)C3)cc(OC)c(C(=O)Nc3cc(F)c4nc(C)cn4c3)c2n1 [Compound 653]",
    "AC50": "> 10 µM"
  },
  {
    "compound": "CCNC1CCN(c2ccc(C(=O)Nc3cc(F)c4nc(C)cn4c3)c3nn(CC)cc23)C1 (stereo in doubt) [Compound 399]",
    "AC50": "> 10 µM"
  },
  {
    "compound": "CCn1cc2c(N3CC[C@](C)(NC)C3)ccc(C(=O)Nc3cc(F)c4nc(C)cn4c3)c2n1 [Compound 548]",
    "AC50": "> 10 µM"
  },
  {
    "compound": "Cc1cn2cc(NC(=O)c3ccc(N4CCNCC4)c4cn(CC5(O)COC5)nc34)cc(F)c2n1 [Compound 384]",
    "AC50": "> 10 µM"
  },
  {
    "compound": "CCn1cc2c(N3CCC(NC)C3)ccc(C(=O)Nc3cc(F)c4nc(C)cn4c3)c2n1 (stereo not drawn) [Compound 374]",
    "AC50": "> 10 µM"
  },
  {
    "compound": "CN[C@@H]1CCN(c2ccc(C(=O)Nc3cn4cc(C)nc4c(N4CCOCC4)n3)c3nn(C)cc23)C1 [Compound 612]",
    "AC50": "> 10 µM"
  },
  {
    "compound": "CCn1cc2c(N3CCNC4(CC4)C3)ccc(C(=O)Nc3cc(F)c4nc(C)cn4c3)c2n1 [Compound 379]",
    "AC50": "> 10 µM"
  }
]
